Tested on: MCF7
Protocol description: Cytotoxicity against human MCF7 cells assessed as growth inhibition at 50 uM by SRB assay
Format: functional
Details: read-out: GI
Parameter measured: inhibition of growth at 50 µM
Dear colleague, please send the value followed by its unit.

q: # get_value(readout='inhibition of growth at 50 µM', item= `C[C@@H]1CC[C@H]2[C@@H](C)C(=O)O[C@@H]3O[C@@]4(C)CC[C@@H]1[C@]32OO4` )
a: 36%

q: Same read-out for C[C@@H]1CC[C@H]2[C@@H](C)C(OCC#Cc3ccc(-c4ccc(C#CCOC5O[C@@H]6O[C@@]7(C)CC[C@H]8[C@H](C)CC[C@@H]([C@H]5C)[C@@]68OO7)cc4)cc3)O[C@@H]3O[C@@]4(C)CC[C@@H]1[C@]32OO4 (stereo partly drawn) ?
a: 32%

q: Same read-out for C[C@@H]1CC[C@H]2[C@@H](C)C(OCC#Cc3ccc(C#CCOC4O[C@@H]5O[C@@]6(C)CC[C@H]7[C@H](C)CC[C@@H]([C@H]4C)[C@@]57OO6)s3)O[C@@H]3O[C@@]4(C)CC[C@@H]1[C@]32OO4 (stereo partly drawn) ?
a: 29%
